- Tested on: multiple myeloma cell line NCI-H929
- ASSAY_EXPLANATION: H929 Cell Viability Assay
- Format: cell-based, human
- CONDITION_DESCRIPTION: Homo sapiens, NCI-H929, 48 h, NCI-H929 cells, Celltiter-Glo
The following compounds are shown together with reported EC50 values.

# COMPOUND, QUALIFIER, EC50 (µM)
measured = [
    ("CC(CC#N)n1cnc(/C=C/c2csc(NC(=O)c3cccn3Cc3ccnc(F)c3)n2)c1 (centres unmarked)", ">", 25),
    ("CC(C)c1ccc(/C=C/c2csc(NC(=O)c3cccn3Cc3cc(F)nc(F)c3)n2)nc1", "=", 9.92),
    ("NCCOc1ccc(N2CCC[C@@H]2c2csc(NC(=O)c3cccn3Cc3ccnc(F)c3)n2)cc1", "=", 1.27),
    ("O=C(Nc1nc([C@H]2CCCN2c2ccc(C(F)(F)F)cc2)cs1)c1cccn1CC1CCOCC1", "=", 4.21),
    ("NC(=O)Cn1cnc(/C=C/c2csc(NC(=O)c3cccn3Cc3ccnc(F)c3)n2)c1", ">", 25),
    ("CC(=O)N1CC(CCc2ccc(N3CCC[C@@H]3c3csc(NC(=O)c4cccn4Cc4ccnc(F)c4)n3)cc2)C1", "=", 0.438),
    ("Cc1cnc(/C=C/c2csc(NC(=O)c3cccn3Cc3ccncc3)n2)o1", ">", 25),
    ("NC(=O)CCCn1cccc1C(=O)Nc1nc([C@H]2CCCN2c2ccccc2)cs1", ">", 25),
]

Values compiled from patent US20230286973A1.
